These data points were gathered from PubChem BioAssay AID1963424.

Hi there, I'd appreciate the recorded IC50 for every entry that follows.
System: 327498-153-R-J2-PDC complex spheroid growth, % test/control;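 also: spheroids exposed to compound for 7 days after 3 days of growth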
measurement.notes: Anticancer human tumor 327498-153-R-J2-PDC patient-derived uterine carcinosarcoma cell line growth inhibition [Asc]
conditions.used: curve of first compound; second compound 3.16 µM
Answers are plain numbers, in nM.

compound	tgt	assay.value
CCN1C(C(=O)NC23CCC(C(=O)O)(CC2)CC3)C(c2cccc(Cl)c2F)C2(C(=O)Nc3cc(Cl)ccc32)C12CCCCC2 (configuration not stated) + Cc1c(S(C)(=O)=O)c(-c2cc(F)cc(N3CCN(c4ccc(NS(=O)(=O)c5ccc(NC(CCN6CCC(C(=O)OCCCP(=O)(O)O)CC6)CSc6ccccc6)c(S(=O)(=O)C(F)(F)F)c5)cc4)CC3)c2)c(-c2ccc(Cl)cc2)n1C(C)C	327498-153-R-J2-PDC complex spheroid growth, % test/control	122

Return reported IC50. Input compound: COc1c(OCCCN2CCOCC2)ccc2c3n(c(=NC(=O)c4cnc(N)nc4)nc12)CCN3 + Cc1c(S(C)(=O)=O)c(-c2cc(F)cc(N3CCN(c4ccc(NS(=O)(=O)c5ccc(NC(CCN6CCC(C(=O)OCCCP(=O)(O)O)CC6)CSc6ccccc6)c(S(=O)(=O)C(F)(F)F)c5)cc4)CC3)c2)c(-c2ccc(Cl)cc2)n1C(C)C
86.4
